# tgt: KRAS-G12D protein (Homo sapiens, UniProt P01116, G12D)
# Sequence (P01116 1-188 isoform P01116-2 G12D): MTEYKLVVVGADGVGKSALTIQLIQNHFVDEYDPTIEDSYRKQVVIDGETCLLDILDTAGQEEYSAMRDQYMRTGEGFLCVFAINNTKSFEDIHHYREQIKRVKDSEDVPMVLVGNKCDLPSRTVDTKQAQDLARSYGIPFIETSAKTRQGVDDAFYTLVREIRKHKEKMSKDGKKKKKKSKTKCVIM
# assayRemarks: SOS-mediated nucleotide exchange assay (BODIPY-GDP / Tb-streptavidin TR-FRET)
# Format: biochemical
pEC50: −log10 of the molar value. *1 amine or outer side, *2 acyl side, *3 side chain or, on linkers, in order; H or OH if unused. Where a SMILES comes first, the peptide text is derived from it. [ ]: non-standard residue; d: D form. Ala(pyrimidin-5-yl) = N[C@@H](Cc1cncnc1)C(=O)O; X26 = Cn1cc(C[C@H](N[*:1])C(=O)[*:2])cn1; NHCH2CH2SCH2CO = O=C(CSCCN[*:1])[*:2]; Phe(2-F) = N[C@@H](Cc1ccccc1F)C(=O)O; NMe3Pal = CN[C@@H](Cc1cccnc1)C(=O)O; X1 = O=C(C12CC(CN[*:1])(C1)C2)[*:2]; X17 = O=C([C@H](CCCCF)N[*:1])[*:2]; NMeF = CN[C@@H](Cc1ccccc1)C(=O)O; PhLac = O=C(O)[C@@H](O)Cc1ccccc1; 3Pal = N[C@@H](Cc1cccnc1)C(=O)O; Cba = N[C@@H](CC1CCC1)C(=O)O; NMeA = CN[C@@H](C)C(=O)O; Nle = CCCC[C@H](N)C(=O)O
Catalogue of pEC50 values
valueType: pEC50

INSERT INTO assay_data (compound, numericresult) VALUES
  ('CCCCC[C@@H]1NC(=O)[C@H](Cc2ccc(OC)cc2)NC(=O)[C@H](CC2CCC2)NC(=O)[C@H](Cc2cccnc2)NC(=O)[C@H](CCCNC(=N)N)NC(=O)[C@H](Cc2ccccc2)NC(=O)CSC[C@@](C)(C(N)=O)NC(=O)[C@H](Cc2ccccc2)N(C)C1=O', 8.24),
  ('CCCC[C@@H]1NC(=O)[C@H](Cc2ccc(OC)cc2)NC(=O)[C@H](CC2CCC2)NC(=O)[C@H](Cc2cccnc2)NC(=O)[C@H](CCCNC(=N)N)NC(=O)[C@H](Cc2ccccc2)NC(=O)C23CC(CNC(=O)[C@H](Cc4ccccc4)N(C)C1=O)(C2)C3 [compound 98] (cyclo(FR[3Pal][Cba]Y(Me)[Nle][NMeF][X1]))', 8.26),
  ('CCC[C@@H]1NC(=O)[C@H](Cc2ccc(O)cc2)NC(=O)[C@H](CC(C)C)NC(=O)[C@H](Cc2ccc(O)cc2)NC(=O)[C@H](CCCNC(=N)N)NC(=O)[C@H](Cc2ccccc2)NC(=O)CSC[C@@H](C(N)=O)NC(=O)[C@H](Cc2ccccc2)N(C)C1=O', 5.44),
  ('CCCC[C@@H]1NC(=O)[C@H](CCCNC(=N)N)NC(=O)[C@H](Cc2ccccc2)NC(=O)CSCCNC(=O)[C@H](Cc2ccccc2)N(C)C(=O)[C@H](CCCC)NC(=O)[C@H](Cc2ccc(O)cc2)NC(=O)[C@H](CC(C)C)NC1=O [compound 81] (cyclo(FR[Nle]LY[Nle][NMeF][NHCH2CH2SCH2CO]))', 5.10),
  ('CCCC[C@@H]1NC(=O)[C@H](Cc2cnn(C)c2)NC(=O)[C@H](C)N(C)C(=O)[C@H](Cc2ccccc2)OC(=O)C23CC(CNC(=O)[C@H](Cc4cccnc4)N(C)C(=O)[C@H](CCCC)NC(=O)[C@H](Cc4ccccc4F)NC1=O)(C2)C3 [compound 400] (cyclo([NMe3Pal][X1][PhLac][NMeA][X26][Nle][Phe(2-F)][Nle]))', 7.85),
  ('CCCC[C@@H]1NC(=O)[C@H](Cc2ccccc2F)NC(=O)[C@H](CCCCF)NC(=O)[C@H](Cc2cncnc2)NC(=O)[C@H](C)N(C)C(=O)[C@H](Cc2ccccc2)OC(=O)C23CC(CNC(=O)[C@H](Cc4ccccc4)N(C)C1=O)(C2)C3 [compound 130] (cyclo([NMeA][Ala(pyrimidin-5-yl)][X17][Phe(2-F)][Nle][NMeF][X1][PhLac]))', 8.61);
